Test system: RXRa DBDmut IVT, anti-RXR (DBD mutation: RXRa K156A/R161A, NR concentration 90 nM)
RUN_DESCRIPTION: PBM binding z-score (relative to random genomic background probes); higher = stronger binding; sequences stand for … in GC…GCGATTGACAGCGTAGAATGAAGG
Some sequences, each annotated with its measured PBM binding z-score.
Please state the value as a number alone, without comment.

Q: Look up PBM binding z-score with RXRa DBDmut IVT, anti-RXR (DBD mutation: RXRa K156A/R161A, NR concentration 90 nM) for this sequence: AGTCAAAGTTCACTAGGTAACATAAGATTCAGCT
Ans: 4.29

Q: Look up PBM binding z-score with RXRa DBDmut IVT, anti-RXR (DBD mutation: RXRa K156A/R161A, NR concentration 90 nM) for this sequence: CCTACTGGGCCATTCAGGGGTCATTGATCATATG
Ans: 0.56

Q: Look up PBM binding z-score with RXRa DBDmut IVT, anti-RXR (DBD mutation: RXRa K156A/R161A, NR concentration 90 nM) for this sequence: CCTACTGTGCCAAGGTCATTGATCAGTCAAAGCA
Ans: 2.18

Q: Look up PBM binding z-score with RXRa DBDmut IVT, anti-RXR (DBD mutation: RXRa K156A/R161A, NR concentration 90 nM) for this sequence: GCTGCTAGGTCAACTGATTGTCAGCTAAAGCTCG
Ans: 1.3

Q: Look up PBM binding z-score with RXRa DBDmut IVT, anti-RXR (DBD mutation: RXRa K156A/R161A, NR concentration 90 nM) for this sequence: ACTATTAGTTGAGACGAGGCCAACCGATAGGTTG
Ans: 0.0149

Q: Look up PBM binding z-score with RXRa DBDmut IVT, anti-RXR (DBD mutation: RXRa K156A/R161A, NR concentration 90 nM) for this sequence: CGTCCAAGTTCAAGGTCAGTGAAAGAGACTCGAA
Ans: 4.51

Q: Look up PBM binding z-score with RXRa DBDmut IVT, anti-RXR (DBD mutation: RXRa K156A/R161A, NR concentration 90 nM) for this sequence: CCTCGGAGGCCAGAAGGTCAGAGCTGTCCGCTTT
Ans: -0.11

---

Some sequences, each annotated with its measured PBM binding z-score.
Tested on: PPARg DBDmut:RXRa IVT, anti-PPARg (DBD mutation: PPARg1 K132A/R137A, NR concentration 270 nM, RXRa partner concentration 90 nM)
RUN_DESCRIPTION: PBM binding z-score (relative to random genomic background probes); higher = stronger binding; sequences stand for … in GC…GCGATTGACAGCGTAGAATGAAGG
Please state the value as a number alone, without comment.

{"PRIMARY_SEQUENCE": "AGAATGAGGTTATAAGTAGATCAGGGAAGAAAGT", "PBM binding z-score": 0.674}
{"PRIMARY_SEQUENCE": "ACTCGGAGGACAAAGGTCAGAGTTACGCCAGTGA", "PBM binding z-score": 0.234}
{"PRIMARY_SEQUENCE": "CCTCGGAGGACAACAGCAGGTCAGAGCTGCCAGA", "PBM binding z-score": -0.897}
{"PRIMARY_SEQUENCE": "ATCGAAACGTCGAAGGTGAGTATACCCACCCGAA", "PBM binding z-score": 0.59}

Q: Reported PBM binding z-score for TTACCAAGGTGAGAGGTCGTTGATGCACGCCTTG : what is it?
Ans: 0.616

Q: Reported PBM binding z-score for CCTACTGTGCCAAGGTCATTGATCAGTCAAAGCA : what is it?
Ans: -0.148

Q: Reported PBM binding z-score for TCATATAGGTACAGGTGAAAGTCGAACGATATGA : what is it?
Ans: 1.45

Q: Reported PBM binding z-score for TTACCAAAGTGAGCTGAGGTCGTTGATCCAACTC : what is it?
Ans: -0.436

Q: Reported PBM binding z-score for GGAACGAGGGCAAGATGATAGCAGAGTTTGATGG : what is it?
Ans: -0.698

Q: Reported PBM binding z-score for CGTCAAAGTTCAAGGTAACGTAACAGAAAGCAGC : what is it?
Ans: 1.4

---

Some sequences, each annotated with its measured PBM binding z-score.
Test system: PPARg:RXRa 270nM:90nM, anti-RXR (NR concentration 270 nM, RXRa partner concentration 90 nM)
RUN_DESCRIPTION: PBM binding z-score (relative to random genomic background probes); higher = stronger binding; sequences stand for … in GC…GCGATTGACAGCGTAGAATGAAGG
Please state the value as a number alone, without comment.

Please review the entries below; each comes with its answer.
{"PRIMARY_SEQUENCE": "AGTCAAAGCTCAGGACGAGGTAACGTAAAGCACG", "PBM binding z-score": -0.305}
{"PRIMARY_SEQUENCE": "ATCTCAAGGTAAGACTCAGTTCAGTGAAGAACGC", "PBM binding z-score": 0.104}
{"PRIMARY_SEQUENCE": "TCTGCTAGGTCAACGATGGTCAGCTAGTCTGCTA", "PBM binding z-score": 2.9}
{"PRIMARY_SEQUENCE": "TATACCGGGTCAAAGGCCAGAGTACGAATGTCGA", "PBM binding z-score": 7.39}
{"PRIMARY_SEQUENCE": "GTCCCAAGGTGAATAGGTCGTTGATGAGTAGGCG", "PBM binding z-score": 1.4}
{"PRIMARY_SEQUENCE": "TCTAGTTGGTCAAAGGTCACTCACTCGAAATGCG", "PBM binding z-score": 10}
{"PRIMARY_SEQUENCE": "CCGACTGGGGCCAGGTTACCATAACGCACAGCCA", "PBM binding z-score": 0.301}
{"PRIMARY_SEQUENCE": "TCTTGTAGAGCAAGCAGGTTAAGAAAGCCTGAGT", "PBM binding z-score": 0.511}

Q: Reported PBM binding z-score for ATCACTAGGTAACCAAGTTCAGTGAATGCCGAAC : what is it?
Ans: 1.3

Q: Reported PBM binding z-score for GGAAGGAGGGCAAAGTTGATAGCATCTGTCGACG : what is it?
Ans: 7.29

Q: Reported PBM binding z-score for TCATATAGGTAAATGCTAGGTGAAATTCCGATCT : what is it?
Ans: 2.31

Q: Reported PBM binding z-score for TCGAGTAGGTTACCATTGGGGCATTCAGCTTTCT : what is it?
Ans: 1.23

Q: Reported PBM binding z-score for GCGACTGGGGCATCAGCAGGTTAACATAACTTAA : what is it?
Ans: 1.16

---

Test system: RARg:RXRa (NR concentration 270 nM, RXRa partner concentration 90 nM)
RUN_DESCRIPTION: PBM binding z-score (relative to random genomic background probes); higher = stronger binding; sequences stand for … in GC…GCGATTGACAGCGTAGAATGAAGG
MEASURED_ENDPOINT: PBM binding z-score

Please review the entries below; each comes with its answer.
{"PRIMARY_SEQUENCE": "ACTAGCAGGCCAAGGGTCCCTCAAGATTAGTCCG", "ASSAY_TARGET": "RARg:RXRa (NR concentration 270 nM, RXRa partner concentration 90 nM)", "PBM binding z-score": -0.0773}
{"PRIMARY_SEQUENCE": "AGTCAAAGTTCAGGACGAGGTAGCGTAAAGCACG", "ASSAY_TARGET": "RARg:RXRa (NR concentration 270 nM, RXRa partner concentration 90 nM)", "PBM binding z-score": 4.44}

Q: Look up PBM binding z-score with RARg:RXRa (NR concentration 270 nM, RXRa partner concentration 90 nM) for this sequence: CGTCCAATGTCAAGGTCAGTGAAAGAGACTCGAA
Ans: 3.38

Q: Look up PBM binding z-score with RARg:RXRa (NR concentration 270 nM, RXRa partner concentration 90 nM) for this sequence: TGTAGCAGGCCAGAGGGTCACTCAAGAGGTACGG
Ans: 2.8

Q: Look up PBM binding z-score with RARg:RXRa (NR concentration 270 nM, RXRa partner concentration 90 nM) for this sequence: ATCGAAAGGTCGACGAGATGAGTATACACCGTTT
Ans: 3.91

Q: Look up PBM binding z-score with RARg:RXRa (NR concentration 270 nM, RXRa partner concentration 90 nM) for this sequence: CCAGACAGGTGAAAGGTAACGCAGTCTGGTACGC
Ans: 1.46

Q: Look up PBM binding z-score with RARg:RXRa (NR concentration 270 nM, RXRa partner concentration 90 nM) for this sequence: TCCAGTTGGTCAAAGGTCACACACTCGAAATGCG
Ans: 7.17

Q: Look up PBM binding z-score with RARg:RXRa (NR concentration 270 nM, RXRa partner concentration 90 nM) for this sequence: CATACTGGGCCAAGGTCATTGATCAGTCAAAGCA
Ans: 3.85

Q: Look up PBM binding z-score with RARg:RXRa (NR concentration 270 nM, RXRa partner concentration 90 nM) for this sequence: TCGAGTGGGTTAGTCGGGGCATTCAGCCAACATA
Ans: -0.203

Q: Look up PBM binding z-score with RARg:RXRa (NR concentration 270 nM, RXRa partner concentration 90 nM) for this sequence: CGTAAAAGTTCAACTAAGGTAACGTAAAGCACGC
Ans: 5.28

Q: Look up PBM binding z-score with RARg:RXRa (NR concentration 270 nM, RXRa partner concentration 90 nM) for this sequence: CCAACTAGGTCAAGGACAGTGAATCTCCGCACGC
Ans: 3.66

Q: Look up PBM binding z-score with RARg:RXRa (NR concentration 270 nM, RXRa partner concentration 90 nM) for this sequence: TCTGCTGGGTCAGTTGGTCAGCTAACGAGCTGCC
Ans: 2.77

Q: Look up PBM binding z-score with RARg:RXRa (NR concentration 270 nM, RXRa partner concentration 90 nM) for this sequence: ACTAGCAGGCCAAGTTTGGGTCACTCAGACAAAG
Ans: 2.11

Q: Look up PBM binding z-score with RARg:RXRa (NR concentration 270 nM, RXRa partner concentration 90 nM) for this sequence: AGAATGAGGTTATACGTTGATCAGGGAAGAAAGT
Ans: 1.49

Q: Look up PBM binding z-score with RARg:RXRa (NR concentration 270 nM, RXRa partner concentration 90 nM) for this sequence: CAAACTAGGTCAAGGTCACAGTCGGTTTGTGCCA
Ans: 6.22

Q: Look up PBM binding z-score with RARg:RXRa (NR concentration 270 nM, RXRa partner concentration 90 nM) for this sequence: CGAACTAGGTCATTGACAGGACGGTGAATAGTAA
Ans: 4.09

Q: Look up PBM binding z-score with RARg:RXRa (NR concentration 270 nM, RXRa partner concentration 90 nM) for this sequence: ACAGACAGGTGAGTGAAGGTAACTCCGCTGGACG
Ans: 0.0663

Hello, the source for this data is the supplement of paper PMC6555819, in case you need it.
